system: P. aeruginosa GC 2214; assay: MIC, broth microdilution; conditions: Pseudomonas aeruginosa, GC2214, P. aeruginosa GC 2214; Water pre-incubation
Quick reference: MIC of the listed items.

Answered examples (2):
- COMPOUND: "CCCCN(CC(=O)Nc1cc(N(C)C)c2c(c1O)C(=O)C1=C(O)[C@]3(O)C(=O)C(C(N)=O)=C(O)[C@@H](N(C)C)C3CC1C2)C(=O)OCOC(=O)C(C)C (stereo partly drawn)"
  VAL: "> 64 µg/mL"
- COMPOUND: "CCCN(CC(=O)Nc1cc(N(C)C)c2c(c1O)C(=O)C1=C(O)[C@]3(O)C(=O)C(C(N)=O)=C(O)[C@@H](N(C)C)[C@@H]3C[C@@H]1C2)C(=O)OCOC(=O)Cc1ccccc1"
  VAL: "> 64 µg/mL"

Okay, next one:
What measured MIC goes with CCCCN(CC(=O)Nc1cc(N(C)C)c2c(c1O)C(=O)C1=C(O)[C@]3(O)C(=O)C(C(N)=O)=C(O)[C@@H](N(C)C)[C@@H]3C[C@@H]1C2)C(=O)OCOC(=O)Cc1ccccc1 ?
> 64 µg/mL

----------
test system: E. faecalis GC 4555; assay: MIC, broth microdilution; conditions: Enterococcus faecalis, GC4555, E. faecalis GC 4555; Water pre-incubation
Quick reference: MIC of the listed items.
Your answer should be a plain number; it is taken to be in µg/mL.

Answered examples (6):
- COMPOUND: "CCCCN(CC(=O)Nc1cc(N(C)C)c2c(c1O)C(=O)C1=C(O)[C@]3(O)C(=O)C(C(N)=O)=C(O)[C@@H](N(C)C)[C@@H]3C[C@@H]1C2)C(=O)OCOC(=O)c1ccc(F)cc1"
  MIC (µg/mL): 8
- COMPOUND: "CCCCN(CC(=O)Nc1cc(N(C)C)c2c(c1O)C(=O)C1=C(O)[C@]3(O)C(=O)C(C(N)=O)=C(O)[C@@H](N(C)C)C3CC1C2)C(=O)OCOC(=O)c1ccc(OC)cc1 (stereo partly shown)"
  MIC (µg/mL): 4
- COMPOUND: "CCCN(CC(=O)Nc1cc(N(C)C)c2c(c1O)C(=O)C1=C(O)[C@]3(O)C(=O)C(C(N)=O)=C(O)[C@@H](N(C)C)[C@@H]3C[C@@H]1C2)C(=O)OCc1ccccc1"
  MIC (µg/mL): 8
- COMPOUND: "CCCCN(CC(=O)Nc1cc(N(C)C)c2c(c1O)C(=O)C1=C(O)[C@]3(O)C(=O)C(C(N)=O)=C(O)[C@@H](N(C)C)C3CC1C2)C(=O)OCOC(=O)C(C)C (stereo partly shown)"
  MIC (µg/mL): 4
- COMPOUND: "CCCN(CC(=O)Nc1cc(N(C)C)c2c(c1O)C(=O)C1=C(O)[C@]3(O)C(=O)C(C(N)=O)=C(O)[C@@H](N(C)C)[C@@H]3C[C@@H]1C2)C(=O)OCOC(=O)C1CCC1"
  MIC (µg/mL): 1
- COMPOUND: "CCCN(CC(=O)Nc1cc(N(C)C)c2c(c1O)C(=O)C1=C(O)[C@]3(O)C(=O)C(C(N)=O)=C(O)[C@@H](N(C)C)[C@@H]3C[C@@H]1C2)C(=O)OCOC(=O)Cc1ccccc1"
  MIC (µg/mL): 1

Okay, next one:
What measured MIC goes with CCCN(CC(=O)Nc1cc(N(C)C)c2c(c1O)C(=O)C1=C(O)[C@]3(O)C(=O)C(C(N)=O)=C(O)[C@@H](N(C)C)[C@@H]3C[C@@H]1C2)C(=O)OCC ?
8

----------
tested on: E. coli GC 2234; experiment: MIC, broth microdilution; settings: Escherichia coli, GC2234, E. coli GC 2234; Mouse Serum pre-incubation
Quick reference: MIC of the listed items.
Remember to put the unit after the number in your answer.

Answered examples (3):
- COMPOUND: "CCCN(CC(=O)Nc1cc(N(C)C)c2c(c1O)C(=O)C1=C(O)[C@]3(O)C(=O)C(C(N)=O)=C(O)[C@@H](N(C)C)[C@@H]3C[C@@H]1C2)C(=O)OCOC(=O)c1ccc(OC)cc1 [Example 6]"
  ASSAY SYSTEM: "E. coli GC 2234"
  MIC: "1 µg/mL"
- COMPOUND: "CCCN(CC(=O)Nc1cc(N(C)C)c2c(c1O)C(=O)C1=C(O)[C@]3(O)C(=O)C(C(N)=O)=C(O)[C@@H](N(C)C)[C@@H]3C[C@@H]1C2)C(=O)OCOC(=O)C1CCC1 [Example 7]"
  ASSAY SYSTEM: "E. coli GC 2234"
  MIC: "1 µg/mL"
- COMPOUND: "CCCCN(CC(=O)Nc1cc(N(C)C)c2c(c1O)C(=O)C1=C(O)[C@]3(O)C(=O)C(C(N)=O)=C(O)[C@@H](N(C)C)C3CC1C2)C(=O)OCOC(=O)c1ccc(C)cc1 (stereo partly shown) [Example 3]"
  ASSAY SYSTEM: "E. coli GC 2234"
  MIC: "1 µg/mL"

What measured MIC goes with CCCN(CC(=O)Nc1cc(N(C)C)c2c(c1O)C(=O)C1=C(O)[C@]3(O)C(=O)C(C(N)=O)=C(O)[C@@H](N(C)C)[C@@H]3C[C@@H]1C2)C(=O)OCOC(=O)C(C)(C)C [Example 9] ?
0.5 µg/mL

----------
test system: Staph.; experiment: Range of MIC for Staph. strains, including MRSA; details: Staphylococcus aureus, MRSA, read-out: Range of MIC, Staph (Water)
OBSERVABLE: MIC

Answered examples (2):
- COMPOUND: "CC(C)Oc1ccc(C(=O)OCOC(=O)N(CC(=O)Nc2cc(N(C)C)c3c(c2O)C(=O)C2=C(O)[C@]4(O)C(=O)C(C(N)=O)=C(O)[C@@H](N(C)C)[C@@H]4C[C@@H]2C3)C(C)(C)C)cc1"
  ASSAY SYSTEM: "Staph."
  MIC: "4 to 16 µg/mL"
- COMPOUND: "CN(C)c1cc(NC(=O)CN(C(=O)OCOC(=O)C(C)(C)C)C(C)(C)C)c(O)c2c1C[C@H]1C[C@H]3[C@H](N(C)C)C(O)=C(C(N)=O)C(=O)[C@@]3(O)C(O)=C1C2=O"
  ASSAY SYSTEM: "Staph."
  MIC: "0.12 to 1 µg/mL"

What measured MIC goes with CCCCN(CC(=O)Nc1cc(N(C)C)c2c(c1O)C(=O)C1=C(O)[C@]3(O)C(=O)C(C(N)=O)=C(O)[C@@H](N(C)C)C3CC1C2)C(=O)OCc1oc(=O)oc1C (some centres unmarked) ?
4 to 8 µg/mL

Another: CCCN(CC(=O)Nc1cc(N(C)C)c2c(c1O)C(=O)C1=C(O)[C@]3(O)C(=O)C(C(N)=O)=C(O)[C@@H](N(C)C)[C@@H]3C[C@@H]1C2)C(=O)OCOC(=O)c1ccco1
0.5 to 4 µg/mL

Another: CCCCN(CC(=O)Nc1cc(N(C)C)c2c(c1O)C(=O)C1=C(O)[C@]3(O)C(=O)C(C(N)=O)=C(O)[C@@H](N(C)C)[C@@H]3C[C@@H]1C2)C(=O)OCOC(=O)C12CC3CC(CC(C3)C1)C2
2 to 16 µg/mL

----------
tested on: S. agalactiae GC 4564; assay: MIC, broth microdilution; conditions: Streptococcus agalactiae, GC4564, read-out: MINIMAL INHIBITORY CONCENTRATION MIC, pre-incubated in Water
OBSERVABLE: MIC (µg/mL)
Your answer should be a plain number; it is taken to be in µg/mL.

Answered examples (2):
- CHEMICAL STRUCTURE: "CCC(C)(C)C(=O)OCOC(=O)N(CC(=O)Nc1cc(N(C)C)c2c(c1O)C(=O)C1=C(O)[C@]3(O)C(=O)C(C(N)=O)=C(O)[C@@H](N(C)C)[C@@H]3C[C@@H]1C2)C(C)(C)C"
  UNIT TAG: "µg/mL"
  MIC: 4
- CHEMICAL STRUCTURE: "CC(C)C(=O)OCOC(=O)N(CC(=O)Nc1cc(N(C)C)c2c(c1O)C(=O)C1=C(O)[C@]3(O)C(=O)C(C(N)=O)=C(O)[C@@H](N(C)C)[C@@H]3C[C@@H]1C2)C(C)(C)C"
  UNIT TAG: "µg/mL"
  MIC: 0.5

Okay, next one:
What measured MIC goes with CCCN(CC(=O)Nc1cc(N(C)C)c2c(c1O)C(=O)C1=C(O)[C@]3(O)C(=O)C(C(N)=O)=C(O)[C@@H](N(C)C)[C@@H]3C[C@@H]1C2)C(=O)OCOC(=O)c1cccs1 ?
0.5

----------
test system: Staph. aureus Smith; experiment: In vivo activity (oral, iv; ED50) against Staph. aureus Smith in mice; conditions: Staphylococcus aureus, in Mus musculus, po, read-out: ED50 Staph Smith SOD
Quick reference: ED50 of the listed items.
Your answer should be a plain number; it is taken to be in mg/kg.

Answered examples (3):
- MOLECULE: "CN(C)c1cc(NC(=O)CN(C(=O)OCOC(=O)C2CCCC2)C(C)(C)C)c(O)c2c1C[C@H]1C[C@H]3[C@H](N(C)C)C(O)=C(C(N)=O)C(=O)[C@@]3(O)C(O)=C1C2=O [Example 46]"
  OBSERVABLE: "ED50"
  VAL: 8.4
- MOLECULE: "CN(C)c1cc(NC(=O)CN(C(=O)OCOC(=O)c2ccccc2F)C(C)(C)C)c(O)c2c1C[C@H]1C[C@H]3[C@H](N(C)C)C(O)=C(C(N)=O)C(=O)[C@@]3(O)C(O)=C1C2=O [Example 91]"
  OBSERVABLE: "ED50"
  VAL: 11.7
- MOLECULE: "CN(C)c1cc(NC(=O)CN(C(=O)OCOC(=O)c2ccc(C(C)(C)C)cc2)C(C)(C)C)c(O)c2c1C[C@H]1C[C@H]3[C@H](N(C)C)C(O)=C(C(N)=O)C(=O)[C@@]3(O)C(O)=C1C2=O [Example 43]"
  OBSERVABLE: "ED50"
  VAL: 12.8

Okay, next one:
What measured ED50 goes with CCCCN(CC(=O)Nc1cc(N(C)C)c2c(c1O)C(=O)C1=C(O)[C@]3(O)C(=O)C(C(N)=O)=C(O)[C@@H](N(C)C)[C@@H]3C[C@@H]1C2)C(=O)OCOC(=O)Cc1ccccc1 [Example 12] ?
15
